Reference source for all entries: patent US20120316161A1

# Experimental protocol: Cytotoxicity in mock-infected MT-4 cells (MTT)
# Format: cell-based
# Experimental setup: human, mock-infected MT-4 cells
Mark Satisfied only when CC50 stays strictly below 100 µM. Values equal to the cut-off are Not satisfied.

Task: Is CC50 of CCCC(C(=O)O)c1c(C)nc2ccnn2c1-c1ccc(C)cc1 (centres unmarked) [CPD-57] strictly below 100 µM?
Output: Not satisfied

Task: Hello, I'm reviewing records and need to know if CC50 of CCCC(C(=O)O)c1c(C)nc2nc(C(C)C)nn2c1-c1ccc(C)cc1 (centres unmarked) [CPD-121] is below 100 µM. Could you check?
Output: Not satisfied

Task: Strictly below 100 µM in CC50? CCCC(C(=O)O)c1c(C)nc2cc(C(C)(C)C)nn2c1-c1ccc(C)c(C)c1 (centres unmarked) [CPD-70]
Output: Not satisfied

Task: Criterion: CC50 strictly below 100 µM. Is it met by CCCC(C(=O)O)c1c(C)nc2cc(-c3ccccc3)nn2c1-c1ccc(C)cc1 (centres unmarked) [CPD-61] ?
Output: Not satisfied

Task: Is CC50 of CCCC(C(=O)O)c1c(C)nc2cc(C(C)(C)C)nn2c1-c1ccc(C)cc1 (centres unmarked) [CPD-59] strictly below 100 µM?
Output: Not satisfied

Task: # strict comparison: is reported CC50 < 100 µM? input = CCCC(C(=O)O)c1c(C)nc2c(nc(C)n2C)c1-c1ccc(C)cc1 (centres unmarked) [CPD-105]
Output: Not satisfied

Task: API: query returns whether the compound falls strictly under 100 µM in CC50. Query: CCCC(C(=O)O)c1c(C)nc2cc(C(C)(C)C)nn2c1-c1ccc2sccc2c1 (centres unmarked) [CPD-67]
Output: Satisfied

Task: Record CCCC(C(=O)O)c1c(C)nc2cc(C(C)(C)C)nn2c1-c1ccc2c(c1)OCCCO2 (centres unmarked) [CPD-72] : is its CC50 strictly below 100 µM?
Output: Not satisfied

Task: Quick check: does COCCC(C(=O)O)c1c(C)nc2cc(C(C)(C)C)nn2c1-c1ccc(C)cc1 (centres unmarked) [CPD-88] have CC50 under 100 µM?
Output: Not satisfied

Task: Given the entry CCCC(C(=O)O)c1c(C)nc2cc(C(C)(C)C)nn2c1-c1ccccc1 (centres unmarked) [CPD-58] , would its reported CC50 be below 100 µM?
Output: Not satisfied

Task: Would you kindly verify if CC50 of CCCC(C(=O)O)c1c(C)nc2cc(C(C)(C)C)nn2c1-c1ccc(Cl)cc1F (centres unmarked) [CPD-79] is strictly less than 100 µM?
Output: Satisfied

Task: Determine whether this compound shows CC50 lower than 100 µM (ties excluded): CCCC(C(=O)O)c1c(C)nc2cc(C(C)(C)C)nn2c1-c1ccc(C(F)(F)F)cc1 (centres unmarked) [CPD-90]
Output: Satisfied

Task: # strict comparison: is reported CC50 < 100 µM? input = CCCC(C(=O)O)c1c(C)nc2c(Br)c(C(C)(C)C)nn2c1-c1ccc(C)cc1 (centres unmarked) [CPD-60]
Output: Satisfied

Task: Consider CCCC(C(=O)O)c1c(C)nc2cc(C(C)(C)C)nn2c1-c1ccc(C)cc1F (centres unmarked) [CPD-80] . Does its CC50 lie strictly below 100 µM?
Output: Not satisfied
